# measuredTarget: Lβ11H, Dβ57A
# methodDescription: flow
# appliedConditions: chains peptide; modification not given
assayReadout: Kd (µM)
Express it in µM; write the number only.

Tell us which Kd value is on record for PKYVKQNTLKLAT [bio-HA308-316]
8.56

Reference source: patent US20050191706A1
